The measured values listed here are drawn from paper PMC7667655.

assay info: Cell viability assay (CellTiter-Glo)
Assay type: cell-based
particulars: human
value type: IC50 at 72 h (nM)
Answers are plain numbers, in nM.

Task: # query: IC50 at 72 h of entry "CC(C)C[C@H](NC(=O)[C@H](CCc1ccccc1)NC(=O)CN1CCOCC1)C(=O)N[C@@H](Cc1ccccc1)C(=O)N[C@@H](CC(C)C)C(=O)[C@@]1(C)CO1"
Output: 15

---

Tested on: NF54 P. falciparum parasites
assay info: P. falciparum strain NF54 growth-inhibition assay
Format: cell-based
particulars: Plasmodium falciparum; luciferase reporter NF54 line, 72 h
// classify: if (IC50 < 2000 nM) Criterion met else Criterion not met

compound	category
C=CC(=O)Nc1cccc([C@@H](CCc2ccc(OC)c(OC)c2)OC(=O)[C@@H]2CCCCN2C(=O)C(=O)C(C)(C)CC)c1	Criterion met
CCC(=O)Nc1cccc([C@@H](CCc2ccc(OC)c(OC)c2)OC(=O)[C@@H]2CCCCN2C(=O)C(=O)C(C)(C)CC)c1	Criterion met
C=CC(=O)Nc1ccccc1[C@@H](CCc1ccc(OC)c(OC)c1)OC(=O)[C@@H]1CCCCN1C(=O)C(=O)C(C)(C)CC	Criterion met
CCC(=O)OCC(C)(C)C(=O)C(=O)N1CCCC[C@H]1C(=O)O[C@H](CCc1ccc(OC)c(OC)c1)c1ccccc1	Criterion not met
C=CC(=O)OCC(C)(C)C(=O)C(=O)N1CCCC[C@H]1C(=O)O[C@H](CCc1ccc(OC)c(OC)c1)c1ccccc1	Criterion not met

Task: Quick check: IC50 of CO[C@H]1C[C@@H]2CC[C@@H](C)[C@@](O)(O2)C(=O)C(=O)N2CCCC[C@H]2C(=O)O[C@H]([C@H](C)C[C@@H]2CC[C@@H](O)[C@H](OC)C2)CC(=O)[C@H](C)/C=C(\C)[C@@H](O)[C@@H](OC)C(=O)[C@H](C)C[C@H](C)/C=C/C=C/C=C/1C [Rapamycin, reference compound] under 2000 nM?
Output: Criterion met

Task: Quick check: IC50 of CCC(C)(C)C(=O)C(=O)N1CCCC[C@H]1C(=O)O[C@H](CCc1ccc(OC)c(OC)c1)c1cccc(OCC(=O)O)c1 [SLFb, reference compound] under 2000 nM?
Output: Criterion not met
